Target: T1, laminin-411 (human, UniProt Q16363 25-1823; P07942 22-1786; P11047 34-1609)
T1 construct: Full-length recombinant human laminin isoform (BioLamina); chains read from the isoform name
T1 sequence (Q16363 25-1823 limits assumed, chain 1 of 3): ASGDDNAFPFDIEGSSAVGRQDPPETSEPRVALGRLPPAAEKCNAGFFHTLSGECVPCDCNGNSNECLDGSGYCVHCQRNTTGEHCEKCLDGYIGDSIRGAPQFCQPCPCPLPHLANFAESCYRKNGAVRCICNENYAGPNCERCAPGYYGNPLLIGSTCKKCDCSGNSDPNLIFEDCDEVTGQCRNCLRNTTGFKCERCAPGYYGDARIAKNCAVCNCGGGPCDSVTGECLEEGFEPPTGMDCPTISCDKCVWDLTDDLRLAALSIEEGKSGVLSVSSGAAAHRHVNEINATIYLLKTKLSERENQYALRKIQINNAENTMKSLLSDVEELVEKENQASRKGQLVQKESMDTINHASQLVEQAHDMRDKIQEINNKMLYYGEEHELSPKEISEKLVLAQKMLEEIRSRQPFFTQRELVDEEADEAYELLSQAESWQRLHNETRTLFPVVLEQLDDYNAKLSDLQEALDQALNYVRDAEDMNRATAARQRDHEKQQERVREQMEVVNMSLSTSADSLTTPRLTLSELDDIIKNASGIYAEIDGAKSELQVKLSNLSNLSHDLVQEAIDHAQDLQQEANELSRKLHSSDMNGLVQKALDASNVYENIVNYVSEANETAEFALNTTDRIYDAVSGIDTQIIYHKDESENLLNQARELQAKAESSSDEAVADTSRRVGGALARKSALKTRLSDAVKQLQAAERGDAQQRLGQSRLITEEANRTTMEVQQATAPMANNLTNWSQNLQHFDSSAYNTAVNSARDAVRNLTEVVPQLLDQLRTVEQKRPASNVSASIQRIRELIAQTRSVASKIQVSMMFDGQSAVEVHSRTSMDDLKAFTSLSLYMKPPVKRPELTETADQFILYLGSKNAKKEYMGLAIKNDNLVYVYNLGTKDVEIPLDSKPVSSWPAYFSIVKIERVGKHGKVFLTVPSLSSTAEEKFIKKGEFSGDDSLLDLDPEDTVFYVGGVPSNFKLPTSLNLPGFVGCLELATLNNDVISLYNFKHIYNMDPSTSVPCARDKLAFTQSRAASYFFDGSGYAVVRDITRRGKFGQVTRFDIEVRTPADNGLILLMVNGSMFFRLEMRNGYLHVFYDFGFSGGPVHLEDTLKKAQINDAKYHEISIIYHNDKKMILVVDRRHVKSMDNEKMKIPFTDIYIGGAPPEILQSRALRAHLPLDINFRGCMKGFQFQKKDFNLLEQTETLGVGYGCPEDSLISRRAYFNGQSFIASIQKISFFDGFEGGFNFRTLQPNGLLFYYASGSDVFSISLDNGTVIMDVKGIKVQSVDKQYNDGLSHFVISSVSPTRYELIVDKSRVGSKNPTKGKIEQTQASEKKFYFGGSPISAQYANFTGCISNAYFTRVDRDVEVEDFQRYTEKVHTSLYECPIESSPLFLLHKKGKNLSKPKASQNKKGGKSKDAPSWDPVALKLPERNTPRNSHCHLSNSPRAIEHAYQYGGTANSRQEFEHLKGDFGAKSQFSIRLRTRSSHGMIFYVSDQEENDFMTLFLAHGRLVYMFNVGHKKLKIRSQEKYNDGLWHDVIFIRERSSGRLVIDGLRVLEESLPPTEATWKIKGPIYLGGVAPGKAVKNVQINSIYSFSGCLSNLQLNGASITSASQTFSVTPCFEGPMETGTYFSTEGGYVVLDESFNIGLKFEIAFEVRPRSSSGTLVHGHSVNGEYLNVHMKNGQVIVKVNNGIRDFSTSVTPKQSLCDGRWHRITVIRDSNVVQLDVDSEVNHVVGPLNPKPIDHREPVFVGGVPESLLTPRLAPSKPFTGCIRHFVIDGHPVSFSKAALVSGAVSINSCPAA
T1 sequence (P07942 22-1786 limits assumed, chain 2 of 3): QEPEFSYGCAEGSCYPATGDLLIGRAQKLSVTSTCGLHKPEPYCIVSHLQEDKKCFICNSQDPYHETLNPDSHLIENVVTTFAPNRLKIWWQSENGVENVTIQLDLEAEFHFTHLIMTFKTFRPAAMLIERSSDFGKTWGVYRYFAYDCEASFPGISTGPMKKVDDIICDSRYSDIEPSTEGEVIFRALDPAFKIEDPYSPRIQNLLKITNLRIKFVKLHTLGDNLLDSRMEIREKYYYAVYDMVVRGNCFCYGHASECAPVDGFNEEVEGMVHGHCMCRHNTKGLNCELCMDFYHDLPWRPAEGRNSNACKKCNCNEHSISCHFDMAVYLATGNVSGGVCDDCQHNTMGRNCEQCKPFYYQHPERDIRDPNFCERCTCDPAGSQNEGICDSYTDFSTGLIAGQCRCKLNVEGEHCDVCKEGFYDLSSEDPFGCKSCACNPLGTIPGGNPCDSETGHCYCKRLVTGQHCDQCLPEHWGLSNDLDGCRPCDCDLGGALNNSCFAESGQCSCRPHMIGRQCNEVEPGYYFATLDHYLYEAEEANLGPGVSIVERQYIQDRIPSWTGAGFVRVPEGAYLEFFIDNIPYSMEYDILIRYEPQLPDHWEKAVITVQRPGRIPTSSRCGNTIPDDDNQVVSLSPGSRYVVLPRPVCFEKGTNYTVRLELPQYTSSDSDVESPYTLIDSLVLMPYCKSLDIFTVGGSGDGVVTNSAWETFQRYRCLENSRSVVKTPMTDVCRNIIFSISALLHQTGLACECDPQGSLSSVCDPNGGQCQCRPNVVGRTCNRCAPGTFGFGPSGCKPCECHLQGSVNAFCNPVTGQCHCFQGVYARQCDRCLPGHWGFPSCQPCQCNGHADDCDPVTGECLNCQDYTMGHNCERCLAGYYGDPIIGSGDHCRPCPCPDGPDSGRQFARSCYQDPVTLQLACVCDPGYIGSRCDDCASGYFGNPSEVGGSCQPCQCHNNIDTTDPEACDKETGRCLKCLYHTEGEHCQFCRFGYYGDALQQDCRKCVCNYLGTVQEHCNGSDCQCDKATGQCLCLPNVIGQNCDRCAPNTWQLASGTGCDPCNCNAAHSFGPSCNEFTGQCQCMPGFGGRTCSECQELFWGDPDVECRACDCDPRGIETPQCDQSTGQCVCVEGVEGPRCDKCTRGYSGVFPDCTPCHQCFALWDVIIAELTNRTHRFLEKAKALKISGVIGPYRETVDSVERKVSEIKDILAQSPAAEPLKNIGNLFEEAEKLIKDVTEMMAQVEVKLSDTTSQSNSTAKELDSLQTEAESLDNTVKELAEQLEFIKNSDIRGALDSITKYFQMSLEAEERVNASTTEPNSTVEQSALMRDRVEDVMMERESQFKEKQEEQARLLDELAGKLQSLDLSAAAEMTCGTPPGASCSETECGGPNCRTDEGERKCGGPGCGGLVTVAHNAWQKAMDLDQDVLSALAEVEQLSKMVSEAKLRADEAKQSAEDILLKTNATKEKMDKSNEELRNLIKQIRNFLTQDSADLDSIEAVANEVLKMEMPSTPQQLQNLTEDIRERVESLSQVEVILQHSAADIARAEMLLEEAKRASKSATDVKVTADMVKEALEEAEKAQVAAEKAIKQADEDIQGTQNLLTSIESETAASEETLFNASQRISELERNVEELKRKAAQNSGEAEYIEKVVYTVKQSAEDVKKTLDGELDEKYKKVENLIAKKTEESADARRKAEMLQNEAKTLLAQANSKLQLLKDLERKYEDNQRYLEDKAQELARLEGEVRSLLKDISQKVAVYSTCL
T1 sequence (P11047 34-1609 limits assumed, chain 3 of 3): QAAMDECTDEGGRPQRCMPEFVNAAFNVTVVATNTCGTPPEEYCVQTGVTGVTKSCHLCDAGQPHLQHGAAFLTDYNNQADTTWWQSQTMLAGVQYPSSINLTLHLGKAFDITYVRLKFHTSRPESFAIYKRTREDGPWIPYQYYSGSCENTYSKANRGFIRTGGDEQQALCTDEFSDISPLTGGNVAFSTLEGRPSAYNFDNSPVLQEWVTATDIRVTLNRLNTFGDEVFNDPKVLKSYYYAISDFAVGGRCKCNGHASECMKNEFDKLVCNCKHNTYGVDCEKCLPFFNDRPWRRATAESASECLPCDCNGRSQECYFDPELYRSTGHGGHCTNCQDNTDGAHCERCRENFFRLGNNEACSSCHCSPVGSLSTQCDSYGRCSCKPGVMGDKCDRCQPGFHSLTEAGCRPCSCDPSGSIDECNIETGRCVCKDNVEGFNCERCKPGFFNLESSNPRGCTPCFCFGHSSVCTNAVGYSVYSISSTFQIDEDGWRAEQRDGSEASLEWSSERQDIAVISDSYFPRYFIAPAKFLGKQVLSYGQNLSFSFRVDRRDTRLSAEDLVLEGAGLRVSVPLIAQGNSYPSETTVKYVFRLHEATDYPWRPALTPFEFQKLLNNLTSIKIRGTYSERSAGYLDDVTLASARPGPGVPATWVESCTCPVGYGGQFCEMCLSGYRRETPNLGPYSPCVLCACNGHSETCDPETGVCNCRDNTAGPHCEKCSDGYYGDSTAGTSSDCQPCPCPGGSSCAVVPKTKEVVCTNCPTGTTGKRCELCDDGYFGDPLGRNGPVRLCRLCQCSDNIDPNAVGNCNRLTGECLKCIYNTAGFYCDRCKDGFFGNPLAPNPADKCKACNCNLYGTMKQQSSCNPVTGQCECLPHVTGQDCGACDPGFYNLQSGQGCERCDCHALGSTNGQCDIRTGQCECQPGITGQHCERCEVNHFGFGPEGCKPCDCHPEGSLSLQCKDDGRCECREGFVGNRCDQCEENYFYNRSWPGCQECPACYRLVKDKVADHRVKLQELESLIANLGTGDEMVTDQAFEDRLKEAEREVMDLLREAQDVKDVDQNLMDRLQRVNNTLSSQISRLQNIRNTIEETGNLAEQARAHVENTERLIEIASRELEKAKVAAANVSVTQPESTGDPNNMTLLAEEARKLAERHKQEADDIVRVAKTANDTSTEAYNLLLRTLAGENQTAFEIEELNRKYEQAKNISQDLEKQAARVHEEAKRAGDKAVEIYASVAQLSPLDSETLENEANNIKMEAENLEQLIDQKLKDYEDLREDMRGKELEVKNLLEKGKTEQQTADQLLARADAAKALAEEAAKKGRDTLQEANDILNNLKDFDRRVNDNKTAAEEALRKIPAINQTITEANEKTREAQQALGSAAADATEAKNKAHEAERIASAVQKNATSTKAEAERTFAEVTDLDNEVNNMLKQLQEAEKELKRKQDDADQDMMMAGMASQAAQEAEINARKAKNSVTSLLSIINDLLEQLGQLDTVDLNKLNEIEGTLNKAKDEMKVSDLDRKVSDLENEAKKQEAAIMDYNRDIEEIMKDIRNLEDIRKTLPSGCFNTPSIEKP
Test: ELISA, GF coated, laminin 10 nM
Measured Endpoint: binding result

Worked examples, 4 binders total:
brain-derived neurotrophic factor (BDNF) (ligand, UniProt P23560 129-247, looked up, mature; Purchased in mature form) HSDPARRGELSVCDSISEWVTAADKKTAVDMSGGTVTVLEKVPVSKGQLKQYFYETKCNPMGYTKEGCRGIDKRHWNSQCRTTQSYVRALTMDSKKRIGWRFIRIDTSCVCTLTIKRGR = binds
bone morphogenetic protein (BMP)-2 (ligand, UniProt P12643 283-396, looked up, mature) QAKHKQRKRLKSSCKRHPLYVDFSDVGWNDWIVAPPGYHAFYCHGECPFPLADHLNSTNHAIVQTLVNSVNSKIPKACCVPTELSAISMLYLDENEKVVLKNYQDMVVEGCGCR = binds
fibroblast growth factor (FGF)-10 (ligand, UniProt O15520 38-208, looked up, mature; Purchased in mature form) QALGQDMVSPEATNSSSSSFSSPSSAGRHVRSYNHLQGDVRWRKLFSFTKYFLKIEKNGKVSGTKKENCPYSILEITSVEIGVVAVKAINSNYYLAMNKKGKLYGSKEFNNDCKLKERIEENGYNTYASFNWQHNGRQMYVALNGKGAPRRGQKTRRKNTSAHFLPMVVHS = binds
fibroblast growth factor (FGF)-18 (ligand, UniProt O76093 28-207, looked up, mature; Purchased in mature form) EENVDFRIHVENQTRARDDVSRKQLRLYQLYSRTSGKHIQVLGRRISARGEDGDKYAQLLVETDTFGSQVRIKGKETEFYLCMNRKGKLVGKPDGTSKECVFIEKVLENNYTALMSAKYSGWYVGFTKKGRPRKGPKTRENQQDVHFMKRYPKGQPELQKPFKYTTVTKRSRRIRPTHPA = binds

For record neurotrophin (NT)-3 (ligand, UniProt P20783 139-257, looked up, mature; Purchased in mature form) YAEHKSHRGEYSVCDSESLWVTDKSSAIDIRGHQVTVLGEIKTGNSPVKQYFYETRCKEARPVKNGCRGIDDKHWNSQCKTSQTYVRALTSENNKLVGWRWIRIDTSCVCALSRKIGRT the listed binding result is binds

For record bone morphogenetic protein (BMP)-3 (ligand, UniProt P12645 363-472, looked up, mature; Purchased in mature form) QWIEPRNCARRYLKVDFADIGWSEWIISPKSFDAYYCSGACQFPMPKSLKPSNHATIQSIVRAVGVVPGIPEPCCVPEKMSSLSILFFDENKNVVLKVYPNMTVESCACR the listed binding result is binds
